# Tested On: ScGrx7 (Saccharomyces cerevisiae, UniProt P38068)
# Construct: recombinant, N-terminal MRGS(H)6 tag kept, altered stop codon; E. coli XL1-Blue; non-covalent dimer; monothiol, one Cys per subunit
# Sequence (P38068 37-203 limits assumed): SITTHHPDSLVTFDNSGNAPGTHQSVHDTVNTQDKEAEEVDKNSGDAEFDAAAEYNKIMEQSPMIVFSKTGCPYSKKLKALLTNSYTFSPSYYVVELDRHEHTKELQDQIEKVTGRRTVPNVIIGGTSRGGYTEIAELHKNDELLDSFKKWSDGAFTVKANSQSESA
# Assay Notes: HEDS assay coupled to glutathione reductase, NADPH […] nm; Km replot and Dixon plot
Property Measured: Ki (µM)
Use µM as the unit, but write only the number.

-- ask Given OCCS , state its recorded Ki.
-- reply 180

Recorded values, source paper PMC5707495.
